System: DF-1 cells
Assay: Cytotoxicity assay (MTT)
Details: DF-1, maximum non-cytotoxic concentration (90 % cell viability)
measurementKind: MNTC (µg/mL)
Just the number please, in µg/mL, no unit attached.

compound	quantityUnit	MNTC
N#CCC(=O)N/N=C/c1cnc2ccccc2n1	µg/mL	2.0
N#CCC(=O)N/N=C/c1c[n+]([O-])c2ccccc2n1	µg/mL	2.0
NC(=O)c1ncn([C@@H]2O[C@H](CO)[C@@H](O)[C@H]2O)n1	µg/mL	4.0
Cc1c(C(C)O)[n+]([O-])c2ccccc2[n+]1[O-] (centres unmarked)	µg/mL	2.0
Cc1c(C(=O)/C=C/c2ccccc2)[n+]([O-])c2ccccc2[n+]1[O-]	µg/mL	0.25

**Query** // map Cc1c(C(C)O)nc2ccccc2[n+]1[O-] (centres unmarked) to recorded MNTC (system: DF-1 cells)
**Result** 1.0

**Query** Lookup "N#CCC(=O)N/N=C/c1c[n+]([O-])c2ccccc2[n+]1[O-]"
**Result** 1.0

**Query** Lookup "N#CCC(=O)N/N=C/c1cnc2ccccc2[n+]1[O-]"
**Result** 1.0

**Query** Lookup "CC(=O)c1c(C)[n+]([O-])c2ccccc2[n+]1[O-]"
**Result** 2.0

**Query** Lookup "CC(=O)c1nc2ccccc2nc1C"
**Result** 1.0

**Query** Lookup Cc1nc2ccccc2nc1C(C)O (centres unmarked)
**Result** 2.0

###

Catalogue of MIC readings, one per entry.
Test system: M. tuberculosis H37Ra ATCC 25177
Test: Microdilution alamar blue assay (MABA)

Some compounds with known MIC results, for comparison:
CC(=O)c1c(C)[n+]([O-])c2ccccc2[n+]1[O-] 32 µg/mL
NNC(=O)c1ccncc1 16 µg/mL
N#CCC(=O)N/N=C/c1c[n+]([O-])c2ccccc2[n+]1[O-] 64 µg/mL

**Query** Need MIC, item "Cc1c(C(=O)/C=C/c2ccccc2)[n+]([O-])c2ccccc2[n+]1[O-]"
**Result** 64 µg/mL

**Query** Lookup "CO[C@H]1/C=C/O[C@@]2(C)Oc3c(C)c(O)c4c(O)c(c(/C=N/N5CCN(C)CC5)c(O)c4c3C2=O)NC(=O)/C(C)=C\C=C\[C@H](C)[C@H](O)[C@@H](C)[C@@H](O)[C@@H](C)[C@H](OC(C)=O)[C@@H]1C"
**Result** 1.6 µg/mL

###

Catalogue of MIC readings, one per entry.
Test system: Aspergillus fumigatus
Test: Antifungal assay, macrobroth 2-fold serial dilution MIC
Conditions: A. fumigatus 3.5352, deep fungi

molecule	MIC
CC(=O)c1c(C)[n+]([O-])c2ccccc2[n+]1[O-] [MEQ, mequindox]	> 64 µg/mL
C[C@@H]1[C@H](O)[C@@H](C)/C=C/C=C/C=C/C=C/C=C/C=C/C=C/[C@H](O[C@@H]2O[C@H](C)[C@@H](O)[C@H](N)[C@@H]2O)C[C@@H]2O[C@](O)(C[C@@H](O)C[C@@H](O)[C@H](O)CC[C@@H](O)C[C@@H](O)CC(=O)O[C@H]1C)C[C@H](O)[C@H]2C(=O)O [AMB, amphotericin B]	0.5 µg/mL
CC(=O)N1CCN(c2ccc(OCC3COC(Cn4ccnc4)(c4ccc(Cl)cc4Cl)O3)cc2)CC1 (centres unmarked) [KCZ, ketoconazole]	0.5 µg/mL
Cc1c(C(=O)/C=C/c2ccccc2)[n+]([O-])c2ccccc2[n+]1[O-] [QCT, quinocetone]	64 µg/mL

Consider now this further molecule.
**Query** Need MIC, item N#CCC(=O)N/N=C/c1c[n+]([O-])c2ccccc2[n+]1[O-] [CYA, cyadox]
**Result** 32 µg/mL
